Here the recorded Tox50 is given for each entry.
system: HepG2.2.15 cells; experiment: Cytotoxicity determination in HepG2.2.15 cells; format: cell-based; settings: 50% of the cells show a morphology comparable to the cell control
Dear colleague, please return just the value in µM, with no unit written.

Answered examples (3):
compound: COC(=O)C1=C(CCN2CCSC2)NC(c2ncc(F)cc2F)=NC1c1ccc(F)cc1Cl (stereo not drawn)
val: 38

compound: COC(=O)C1=C(CN2CCOCC2)NC(c2nccs2)=NC1c1ccc(Cl)cc1Cl (stereo not drawn)
val: 34

compound: COC(=O)C1=C(CN2CCOCC2)NC(c2ncc(F)cc2F)=N[C@H]1c1ccc(F)cc1Br
val: 63

*Q* Provide the documented Tox50 with HepG2.2.15 cells as the system for COC(=O)C1=C(CN2CCOCC2)NC(c2ncccc2F)=NC1c1ccc(F)cc1Cl (stereo not drawn)
*A* 60

*Q* Similarly, COC(=O)C1=C(CN2CCOCC2)NC(c2ncccc2F)=NC1c1ccc(Cl)cc1Cl (stereo not drawn) ?
*A* 25

----------
system: hepatitis B virus; test: Antiviral action on hepatitis B virus in HepG2.2.15 cells (HBV DNA dot-blot hybridization); format: cell-based; settings: 192 h, 8 days treatment, intra- or extracellular hepatitis B-specific DNA band reduced by 50% compared with untreated sample
pIC50: −log10 of the molar value.
Note to self: values exactly at 8 are met. So pIC50 at or above 8 is met, below is not met.

Past entries and their recorded results:
molecule: COC(=O)C1=C(CN2CCOCC2)NC(c2ncccc2F)=NC1c1ccc(Cl)cc1Cl (stereo not shown)
assignedCategory: not met
//
molecule: COC(=O)C1=C(CN2CCOCC2)NC(c2ncc(F)cc2F)=N[C@H]1c1ccc(F)cc1Cl
assignedCategory: met
//
molecule: COC(=O)C1=C(CCN2CCSC2)NC(c2ncc(F)cc2F)=NC1c1ccc(F)cc1Cl (stereo not shown)
assignedCategory: not met
//
molecule: COC(=O)C1=C(CN2CCOCC2)NC(c2ncc(F)cc2F)=N[C@H]1c1ccc(F)cc1Br
assignedCategory: met
//
molecule: COC(=O)C1=C(CN2CCOCC2)NC(c2nccs2)=NC1c1ccc(Cl)cc1Cl (stereo not shown)
assignedCategory: met
//
molecule: COC(=O)C1=C(CN2CCSCC2)NC(c2ncc(F)cc2F)=N[C@H]1c1ccc(F)cc1Cl
assignedCategory: not met
//
molecule: COC(=O)C1=C(CN2CCSCC2)NC(c2ncc(F)cc2F)=NC1c1ccc(Cl)cc1Cl (stereo not shown)
assignedCategory: not met

*Q* Item COC(=O)C1=C(CN2CCOCC2)NC(c2ncccc2F)=NC1c1ccc(F)cc1Br (stereo not shown) with pIC50 of 8 or above?
*A* not met

----------
Test system: HepG2.2.15 cells
Test: Cytotoxicity determination in HepG2.2.15 cells
Assay type: cell-based
Conditions: 50% of the cells show a morphology comparable to the cell control
Description: Before harvesting the supernatants to determine the antiviral effect, the HepG2.2.15 cells were examined under the light microscope or by means of biochemical detection methods (for example Alamar Blue stain or Trypan Blue stain) for cytotoxic changes. Substance-induced cytotoxic or cytostatic changes in the HepG2.2.15 cells were detected, for example, under the light microscope as changes in cell morphology. […]
reportedEndpoint: Tox50 (µM)
Dear colleague, please return just the value in µM, with no unit written.

compound: COC(=O)C1=C(CN2CCOCC2)NC(c2ncc(F)cc2F)=N[C@H]1c1ccc(F)cc1Cl
Tox50, µM: 40

*Q* What value of Tox50 has been reported for the following compound? COC(=O)C1=C(CN2CCSCC2)NC(c2ncc(F)cc2F)=NC1c1ccc(Cl)cc1Cl (stereo not shown)
*A* 3

*Q* Similarly, COC(=O)C1=C(CN2CCOCC2)NC(c2ncccc2F)=NC1c1ccc(F)cc1Br (stereo not shown) ?
*A* 80

*Q* Similarly, COC(=O)C1=C(CN2CCOCC2)NC(c2ncc(F)cc2F)=NC1c1ccc(F)cc1Br (stereo not shown) ?
*A* 17
